- System: Echinochloa crus-galli (ECHCG)
- Protocol notes: Pre-emergence herbicidal activity, glasshouse pot test
- Assay type: in vivo
- Condition: 312 h, Rate 250 g/ha, sprayed one day after sowing, evaluated after 13 days, 100=total damage to plant, 0=no damage to plant
Below, each entry is listed alongside its reported pest or weed control at 250 g/ha.

{"Smiles structure": "CCc1ccc(-c2ccc(Cl)cc2Cl)cc1C1=C(O)CCC1=O", "Unit abbreviation": "%", "pest or weed control at 250 g/ha": 50}
{"Smiles structure": "CCc1ccc(-c2ccc(Cl)cc2C)cc1C1=C(O)CCC1=O", "Unit abbreviation": "%", "pest or weed control at 250 g/ha": 50}
{"Smiles structure": "CCc1ccc(-c2ccc(Cl)c(F)c2Cl)cc1C1=C(O)CCC1=O", "Unit abbreviation": "%", "pest or weed control at 250 g/ha": 50}
